Recorded values, source patent US5412098A.

- Tested on: P. aeruginosa (IFO 3445)
- method description: Minimum inhibitory concentration, standard method of Japan Society of Chemotherapy, P. aeruginosa
- Assay type: cell-based
- experimental context: Pseudomonas aeruginosa, IFO3445
Below, each entry is listed alongside its reported MIC.
State just the number; it will be interpreted in µg/mL.

Record excerpt, results attached:
- C[C@@H]1CN(c2nc3c(cc2F)c(=O)c(C(=O)O)cn3-c2cnsn2)C[C@@H]1N (single isomer, unassigned) [Compound 19]: 0.39
- N[C@H]1CCN(c2nc3c(cc2F)c(=O)c(C(=O)O)cn3-c2csnn2)C1 [Compound 58]: 0.39
- Cc1c(F)c(N2CC[C@H](N)C2)cc2c1c(=O)c(C(=O)O)cn2-c1cnsn1 [Compound 162]: 0.2

### Prompt Fill blank: measured MIC of the compound N[C@H]1CCN(c2c(F)cc3c(=O)c(C(=O)O)cn(Cc4cnsn4)c3c2F)C1 [Compound 126] is ____.
### Response 3.13

### Prompt Same again, this time with Cc1nsnc1-n1cc(C(=O)O)c(=O)c2cc(F)c(N3CC[C@H](N)C3)nc21.Cl [Compound 187]
### Response 0.39

### Prompt Same again, this time with Cc1nonc1-n1cc(C(=O)O)c(=O)c2cc(F)c(N3CC[C@H](N)C3)nc21 [Compound 81]
### Response 0.2

### Prompt Same again, this time with Cl.N[C@H]1CCN(c2nc3c(cc2F)c(=O)c(C(=O)O)cn3-c2cnsn2)C1 [Compound 18]
### Response 0.1
